System: SK-MEL-2
Method notes: NCI tumour cell line growth inhibition, 48 h
The source made the active and inactive calls. Cut-off read from the data, not from the text of the source: active = GI50 up to about 1.1 µM and inactive = higher.
Outcome (select one): active, inactive

{"Compound": "NC1=NC(=O)C(CC(=O)Nc2ccc(Cl)cc2Cl)S1 (stereo unspecified)", "Label": "inactive"}
{"Compound": "COC(=O)C1(NC(=O)C(Cc2ccccc2)N(C(=O)OC(C)(C)C)C(=O)OC(C)(C)C)CCCC1 (stereo unspecified)", "Label": "inactive"}
{"Compound": "O=Cc1cc2c(cc1-c1cc3c(cc1C=O)OCO3)OCO2", "Label": "inactive"}

[Q] Per the records of this test, what outcome belongs to `COc1cc2c(cc1OCCCCOc1cc(-c3ccc(F)cc3)nc(C)n1)N=C[C@@H]1CCCN1C2=O` ?
[A] active

[Q] Recorded test outcome, item COC1/C=C/C(C)C(C(C)C(OC)C(C)CCC(=O)C(C)C(CCC(=O)O)OC)OC(=O)/C=C/C=C(\C)CC(OC)CC2=CC(=O)O[C@@H](C(C)C(OC)CC(OC)/C=C/C(C)C(OC)C1)[C@H]2O (stereo partly specified)
[A] active

[Q] Any idea what this test logged for `O=C(NCCCl)Nc1cccnc1` ?
[A] inactive

[Q] Query: recorded result category for `N=C(N)N/N=C/c1c(-c2ccc(Cl)cc2)nc2n1CCS2` in this test
[A] inactive

[Q] Could you kindly confirm the outcome this assay logged for `COc1cccc(NC(=O)C(C)(C)C)c1C=O` ?
[A] inactive

[Q] Call for entry Nc1ncnc2c(C3OC(CO)C(O)C3O)n[nH]c12 (stereo unspecified) :
[A] active

[Q] Could you check what this test reported for COC(=O)C1OC(SCCN)C(O)C(O)C1O (stereo unspecified) ?
[A] inactive
